Where do the numbers come from? From patent US20230295259A1.

I'd appreciate it if you could supply FPN EC50 values for the items below.
- subject_of_test: T1, human ferroportin (SLC40A1) fused in frame with GFP, stably expressed in HEK293 cells (human, UniProt Q9NP59 1-571)
- T1 sequence (looked up): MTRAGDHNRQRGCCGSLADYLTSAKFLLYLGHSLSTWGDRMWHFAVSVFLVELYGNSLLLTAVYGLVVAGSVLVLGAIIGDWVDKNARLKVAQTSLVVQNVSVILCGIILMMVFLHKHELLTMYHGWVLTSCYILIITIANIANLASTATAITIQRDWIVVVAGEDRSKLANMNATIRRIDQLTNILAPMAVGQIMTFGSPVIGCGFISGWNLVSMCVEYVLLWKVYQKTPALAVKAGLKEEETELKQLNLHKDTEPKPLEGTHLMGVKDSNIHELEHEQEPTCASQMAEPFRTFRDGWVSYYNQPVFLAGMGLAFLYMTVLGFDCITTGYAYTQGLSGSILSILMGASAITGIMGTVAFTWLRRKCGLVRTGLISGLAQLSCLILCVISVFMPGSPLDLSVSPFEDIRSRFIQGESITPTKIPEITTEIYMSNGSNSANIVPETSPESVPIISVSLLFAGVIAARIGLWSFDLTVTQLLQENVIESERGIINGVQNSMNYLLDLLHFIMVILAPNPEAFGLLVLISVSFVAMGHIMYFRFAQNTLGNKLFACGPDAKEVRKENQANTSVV
- assay_details: cell-based or functional assay
Positions of bridges follow the written chain, without caps; N, C: chain ends. Non-standard residues stand in square brackets, D forms with d. Groups on a side chain read outwards from the residue. *: point of attachment. PEG12 = NCCOCCOCCOCCOCCOCCOCCOCCOCCOCCOCCOCCOCCC(=O)O; Dip = N[C@H](C(=O)O)C(c1ccccc1)c1ccccc1; Palmitoyl = CCCCCCCCCCCCCCCC(=O)*; β3hF = N[C@H](CC(=O)O)Cc1ccccc1; Isovaleryl = CC(C)CC(=O)*; Npc = nipecotic acid; Ahx = NCCCCCC(=O)O
Give just the numeric value; nM need not be written.

Query Isovaleryl-ETH[Dip][Npc]CI[dK][β3hF]K([Ahx-Palmitoyl])[dK]C-NH2 (disulfide 6-12 (inferred)) [Compound 5] yields FPN EC50 of 2.88

Query XETHXPCIXXXXC (Isovaleric Acid-E-T-H-[Dpa]-P-[Cys]-I-[(D)Lys]-[Dpa]-[Lys(2Peg11′_Palm)]-[(D)Lys]-[Cys]-NH2) [Compound 2] yields FPN EC50 of 5

Query Isovaleryl-ETH[Dip]PCI[dK][β3hF]K([PEG12-Palmitoyl])RC-NH2 (disulfide 6-12 (inferred)) [Compound 27] yields FPN EC50 of 20

Query Isovaleryl-ETH[Dip]PCIK([Ahx-PEG20K])[β3hF]RC-NH2 (disulfide 6-11 (inferred)) [Compound 51] yields FPN EC50 of 103
